# SYSTEM: Bcl-2-like protein 10 (Homo sapiens)
# TEST: inhibitors of Bim-Bcl-B binding, primary screen, biochemical, multiplexed, human Bcl-2 family (AID 951);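 note: 0% = tracer peptide without compound and 100% = reference inhibitor peptide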
# STATED CONDITIONS: bead-based flow cytometry, Bim peptide-Bcl-B binding; at 10 µM; active compounds read high
Out of some 190,000 compounds screened, about 140 (0.074%) were called active. Shown is part of a subset that was picked to be rich in actives.
ASSAY METRIC: inhibition (%)
Numbers only here, please. The scale is %.

Below are worked cases with known answers.
[[record]]
compound = "CCc1nccn1S(=O)(=O)c1cccc([N+](=O)[O-])c1"
system = "Bcl-2-like protein 10 (Homo sapiens)"
assay_metric = "inhibition"
numeric_value = -2

[[record]]
compound = "N#Cc1ccccc1NC(=O)COc1c(Br)cc(Br)c2cccnc12"
system = "Bcl-2-like protein 10 (Homo sapiens)"
assay_metric = "inhibition"
numeric_value = -7

[[record]]
compound = "Cc1c(CN2CCCCC2)c(O)n(CCO)c(=O)c1C#N"
system = "Bcl-2-like protein 10 (Homo sapiens)"
assay_metric = "inhibition"
numeric_value = -3

[[record]]
compound = "Cc1ccc(CC2CC(=O)N(c3nc(C)cc(C)n3)C2=O)cc1 (stereo unspecified)"
system = "Bcl-2-like protein 10 (Homo sapiens)"
assay_metric = "inhibition"
numeric_value = -1

[[record]]
compound = "COc1ccc(/C=C2\\SC(=S)N(CC(=O)NNC(=O)c3ccncc3)C2=O)cc1"
system = "Bcl-2-like protein 10 (Homo sapiens)"
assay_metric = "inhibition"
numeric_value = -1


Give inhibition only, for OCCNCCOc1ccc(Cl)c(Cl)c1 , using Bcl-2-like protein 10 (Homo sapiens) data.
-5

Give inhibition only, for CN1CCN(c2ccc(S(=O)(=O)N3CCCCC3)cc2NC(=O)Cc2ccccc2F)CC1 , using Bcl-2-like protein 10 (Homo sapiens) data.
-4

Give inhibition only, for O=C(C(Cl)Cl)N1CCN(c2ccccn2)CC1 , using Bcl-2-like protein 10 (Homo sapiens) data.
-1

Give inhibition only, for CN1CCN(CCNC(=O)Nc2ccc([N+](=O)[O-])cc2)CC1 , using Bcl-2-like protein 10 (Homo sapiens) data.
-5

Give inhibition only, for O=C(NNC(=O)c1ccc(Cl)cc1Cl)c1cccs1 , using Bcl-2-like protein 10 (Homo sapiens) data.
-1

Give inhibition only, for CC(C)(C)NC(=O)COC(=O)c1cc(Cl)ccc1[N+](=O)[O-] , using Bcl-2-like protein 10 (Homo sapiens) data.
0

Give inhibition only, for O=C1N(c2ccc(Cl)cc2)C(c2ccc(Cl)cc2)N2CCCN12 (stereo unspecified) , using Bcl-2-like protein 10 (Homo sapiens) data.
-11

Give inhibition only, for Cc1cccc(NC(=S)N2CCCC(c3nc4ccccc4[nH]3)C2)c1 (stereo unspecified) , using Bcl-2-like protein 10 (Homo sapiens) data.
-14

Give inhibition only, for O=C(CSc1nn(-c2ccc(F)cc2)c(=S)s1)NC1CCS(=O)(=O)C1 (stereo unspecified) , using Bcl-2-like protein 10 (Homo sapiens) data.
-1

Give inhibition only, for COc1cc(C2/C(=C(\O)c3ccc4c(c3)CC(C)O4)C(=O)C(=O)N2Cc2ccco2)ccc1O (stereo unspecified) , using Bcl-2-like protein 10 (Homo sapiens) data.
1
